For each entry below, report its melting point value.

Answered cases to consult:
| Compound | Metric | Data value |
| --- | --- | --- |
| O=C1NC[C@H](c2cc(Cl)cc(Cl)c2)[C@H]1C(=O)Nc1cccc(F)c1F [Compound 1273] | melting point | 136 to 140 °C |
| O=C1NC[C@H](c2ccc(C(F)(F)F)cn2)[C@H]1C(=O)Nc1ccc(F)c(F)c1F [Compound 1105] | melting point | 173 to 176 °C |
| O=C1NC[C@H](c2cnc(C(F)(F)F)nc2)[C@H]1C(=O)Nc1cccc(F)c1F [Compound 1382] | melting point | 170 to 173 °C |

Then this compound:
Inquiry: Identify measured melting point corresponding to O=C1NC[C@H](c2nccc(C(F)(F)F)n2)[C@H]1C(=O)Nc1cccc(F)c1F [Compound 1392]
Reply text: 154 to 158 °C

* * *

Test system: blackgrass (Alopecurus myosuroides)
Assay: Test A postemergence
Assay type: in vivo
Settings: 500 g ai/ha, postemergence; visual injury, 0 to 100 scale (0 no effect, 100 complete control), approx. 10 d
Metric: Plant response rating, Blackgrass
Answers are plain numbers.

| Compound | Plant response rating, Blackgrass |
| --- | --- |
| Cc1ccc(C2CNC(=O)C2C(=O)Nc2cccc(F)c2F)cc1C(F)(F)F (racemic) | 60 |

// each compound listed below needs its Plant response rating, Blackgrass
1. CN1CC(c2ccc(C(C)(F)F)cc2)C(C(=O)Nc2ccccc2F)C1=O (stereo not drawn)
2. O=C1NCC(c2cccc(Br)c2)C1C(=O)Nc1cccc(F)c1F (racemic)

Reply text:
1. 60
2. 60

* * *

System: giant foxtail (Setaria faberii)
Assay: Test A preemergence
Type: in vivo
Details: Setaria faberi, pre-emergence, 240 h, 125 g ai/ha, preemergence; 0 to 100 scale where 0 is no effect and 100 is complete control; approx. 10 d; read-out: Foxtail, Giant plant response rating
Metric: pest or weed control at 125 g/ha (%)
One number for each entry, in %.

| Given smiles | Data value |
| --- | --- |
| O=C1NC[C@H](c2ccc(F)c(OC(F)(F)C(F)F)c2)[C@H]1C(=O)Nc1ccccc1F | 90 |
| CCc1ccc([C@H]2CNC(=O)[C@@H]2C(=O)Nc2cccc(F)c2C)cc1 | 70 |
| Cc1cc([C@H]2CN(C)C(=O)[C@@H]2C(=O)Nc2ccccc2F)ccc1Br | 90 |
| CCc1cc(CC)cc([C@H]2CNC(=O)[C@@H]2C(=O)Nc2ccccc2F)c1 | 90 |

Then this compound:
Inquiry: Identify measured pest or weed control at 125 g/ha corresponding to CN1C[C@H](c2ccc(C(F)(F)F)nc2)[C@@](C)(C(=O)Nc2ccc(F)c(F)c2F)C1=O
Reply text: 100

* * *

System: wheat (Triticum aestivum)
Assay: Test A postemergence
Type: in vivo
Details: Triticum aestivum, post-emergence, 240 h, 125 g ai/ha, postemergence, visual injury rating after approximately 10 d; read-out: Wheat plant response rating (0 to 100 scale, 0 no effect, 100 complete control)
For each entry below, report its plant injury at 125 g/ha value.
Write the figure, then the unit, nothing else.

Answered cases to consult:
| Compound | Measured target | Data value |
| --- | --- | --- |
| Cc1cc(C)cc([C@H]2CNC(=O)[C@@H]2C(=O)Nc2cccc(F)c2F)c1 | wheat (Triticum aestivum) | 0% |
| CCOc1ccc([C@H]2CN(C)C(=O)[C@@H]2C(=O)Nc2ccc(F)cc2F)cc1 | wheat (Triticum aestivum) | 0% |
| O=C1NC[C@H](c2ccc(F)c(OC(F)(F)C(F)(F)Br)c2)[C@H]1C(=O)Nc1cccc(F)c1F (racemic) | wheat (Triticum aestivum) | 0% |
| CN1C[C@H](c2cc(F)c(C(F)(F)F)c(F)c2)[C@@H](C(=O)Nc2ccccc2S(C)(=O)=O)C1=O | wheat (Triticum aestivum) | 50% |
| CN1CC[C@H](c2cccc(OC(F)(F)F)c2)[C@@H](C(=O)Nc2cccc(Cl)c2F)C1=O | wheat (Triticum aestivum) | 0% |
| CN1CC(c2cccc(I)c2)C(C(=O)Nc2ccccc2F)C1=O (stereo not drawn) | wheat (Triticum aestivum) | 0% |
| Cc1cc(F)cc([C@H]2CNC(=O)[C@@H]2C(=O)Nc2ccc(F)c(F)c2F)c1 | wheat (Triticum aestivum) | 0% |
| CS(=O)(=O)c1ccccc1NC(=O)[C@H]1C(=O)NC[C@@H]1c1cc(F)c(C(F)(F)F)c(F)c1 | wheat (Triticum aestivum) | 50% |

Then this compound:
Inquiry: Identify measured plant injury at 125 g/ha corresponding to COc1c(F)ccc([C@H]2CNC(=O)[C@@H]2C(=O)Nc2ccccc2C(F)(F)F)c1Cl
Reply text: 0%
